- Species: Rattus norvegicus
- METHOD: Open TG-GATES - Regimen: Daily Repeat
- Format: toxicity, organism-based, Sprague-Dawley
- Set-up: regimen Daily Repeat, gender Male, age 6 weeks
- MEASUREMENT CONTEXT: in vivo, po, 0 mg/kg, […], tissue Blood, route gavage, dose level Control, time 7 day
Kindly supply the reported WBC values for the records listed here.
Numbers only, in x10_2/uL.

// below: answered compounds
COMPOUND	WBC, x10_2/uL
CC(=O)Oc1ccccc1C(=O)O	135.5
COc1ccc(Cc2nccc3cc(OC)c(OC)cc23)cc1OC	125.6

Report WBC for each item below.
1. C[C@H](CS)C(=O)N1CCC[C@H]1C(=O)O
2. Clc1ccccc1CN1CCc2sccc2C1
3. CCc1cc(C(N)=S)ccn1 [ETHIONAMIDE]
4. COc1ccc2c(c1)c(CC(=O)O)c(C)n2C(=O)c1ccc(Cl)cc1
5. CCCC(CCC)C(=O)O

1. 144.9
2. 103.5
3. 107.3
4. 126.2
5. 96.1

Record WBC for all entries; do not skip any.
1. CSc1ccc2c(c1)N(CCC1CCCCN1C)c1ccccc1S2 (centres undefined)
2. CO[C@H]1/C=C/O[C@@]2(C)Oc3c(C)c(O)c4c(O)c(c(/C=N/N5CCN(C)CC5)c(O)c4c3C2=O)NC(=O)/C(C)=C\C=C\[C@H](C)[C@H](O)[C@@H](C)[C@@H](O)[C@@H](C)[C@H](OC(C)=O)[C@@H]1C

1. 141.4
2. 122.2
